Each recorded value in this set is attributed to the supplement of paper PMC12494721.

System: Klebsiella aerogenes DSM 30053
run.description: fold change of Cadaverine concentration vs plate DMSO controls (fold change (ratio)); higher = more amine produced, active = hit call of the paper (significant change in both replicates, either direction)
measurement.parameters: incubation time: 27 h, anaerobic, 37 °C
Structures can show the parent of a compound that is named as a salt.
fold change of Cadaverine concentration listing for selected compounds.
Answer with a bare number; do not write a unit.

Study these solved cases before continuing.
| compound | assay.system | assay.result |
| --- | --- | --- |
| NS(=O)(=O)c1cc(Cl)c(Cl)c(S(N)(=O)=O)c1 [Dichlorphenamide] (20 µM) | Klebsiella aerogenes DSM 30053 | 1.03 |
| Nc1ccc(S(=O)(=O)NC(=O)c2ccccc2)cc1 [Sulfabenzamide] (20 µM) | Klebsiella aerogenes DSM 30053 | 1.01 |
| CCOC(=O)O[C@]1(C(=O)COC(=O)CC)CC[C@H]2[C@@H]3CCC4=CC(=O)C=C[C@]4(C)[C@H]3[C@@H](O)C[C@@]21C [Prednicarbate] (20 µM) | Klebsiella aerogenes DSM 30053 | 1.12 |
| COc1cc(OC)c(C(=O)CCCN2CCCC2)c(OC)c1 [Buflomedil hydrochloride] (20 µM) | Klebsiella aerogenes DSM 30053 | 0.997 |
| CC(=O)Oc1c(C)cccc1C(=O)O [Cresopirine] (20 µM) | Klebsiella aerogenes DSM 30053 | 1.01 |

## Input What value of fold change of Cadaverine concentration has been recorded for this entry: CC(CN(C)C)C(C)(O)Cc1ccc(Cl)cc1 (stereo not drawn) [Clobutinol hydrochloride] (20 µM)
## Output 0.988

## Input Which fold change of Cadaverine concentration is listed for OC[C@H]1OC(O)[C@H](O)[C@@H](O)[C@@H]1O (stereo partly drawn) [Glucose/Dextrose] (50 µM) ?
## Output 1.09

## Input If you can, please state the reported fold change of Cadaverine concentration value of NS(=O)(=O)c1cc2c(cc1Cl)NC(CC1CCCC1)NS2(=O)=O (stereo not drawn) [Cyclopenthiazide] (20 µM) .
## Output 0.996
